Molecular target: T1, human CD33 (human, UniProt P20138 18-364)
T1 construct: CD33 on human primary dendritic cells, macrophages, monocytes and T cells and on CHO cells expressing recombinant human CD33; also called Siglec-3; hCD33
T1 sequence (P20138 18-364): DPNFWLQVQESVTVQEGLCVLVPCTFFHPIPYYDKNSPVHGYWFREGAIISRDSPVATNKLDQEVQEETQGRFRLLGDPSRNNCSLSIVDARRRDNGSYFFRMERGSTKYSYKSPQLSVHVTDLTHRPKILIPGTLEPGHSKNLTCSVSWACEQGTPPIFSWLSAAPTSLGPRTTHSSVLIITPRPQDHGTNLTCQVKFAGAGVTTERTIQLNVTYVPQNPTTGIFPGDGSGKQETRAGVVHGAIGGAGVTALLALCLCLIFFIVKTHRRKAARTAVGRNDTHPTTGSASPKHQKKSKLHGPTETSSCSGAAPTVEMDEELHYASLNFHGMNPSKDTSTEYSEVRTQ
Assay: flow cytometry, human primary T cells;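 further: binding of anti-CD33 antibodies at 10 ug/ml to human primary T cells, 1 h on ice, detected with PE-labelled secondary antibody, read as flow cytometry MFI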
Give measured T cell MFI for each item. Keep answers brief.
One number for each entry.

>>> recorded_result("C-11 (antibody, V domains shown, human IgG1) VH: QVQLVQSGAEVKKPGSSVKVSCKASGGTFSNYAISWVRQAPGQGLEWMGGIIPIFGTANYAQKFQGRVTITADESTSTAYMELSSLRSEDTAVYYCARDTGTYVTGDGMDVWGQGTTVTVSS VL: EIVMTQSPATLSVSPGERATLSCRASQSVSSNLAWYQQKPGQAPRLLIYSASTRATGIPARFSGSGSGTEFTLTISSLQSEDFAVYYCQQYIVLPITFGGGTKVEIK")
231

Record T cell MFI per entry; entries follow.
1. C-41 (antibody, V domains shown, human IgG1) VH: QLQLQESGPGLVKPSETLSLTCTVSGGSISSSSYYWGWIRQPPGKGLEWIGSISYSGSTYYNPSLKSRVTISVDTSKNQFSLKLSSVTAADTAVYYCAREGGKGMDVWGQGTLVTVSS VL: EIVLTQSPGTLSLSPGERATLSCRASQSVSSSFLAWYQQKPGQAPRLLIYGASSRATGIPDRFSGSGSGTDFTLTISRLEPEDFAVYYCQQFGDLPTFGGGTKVEIK
2. C-60 (antibody, V domains shown, human IgG1) VH: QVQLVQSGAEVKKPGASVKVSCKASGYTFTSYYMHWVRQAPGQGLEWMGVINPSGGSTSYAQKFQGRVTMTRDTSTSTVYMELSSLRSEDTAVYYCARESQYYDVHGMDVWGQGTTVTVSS VL: DIQLTQSPSSLSASVGDRVTITCRASQSISSYLNWYQQKPGKAPKLLIYAASSLQSGVPSRFSGSGSGTDFTLTISSLQPEDFATYYCQQSVHVPITFGGGTKVEIK
3. C-56 (antibody, V domains shown, human IgG1) VH: EVQLVESGGGLVQPGGSLRLSCAASGFTFSSYWMSWVRQAPGKGLEWVANIKQDGSEKYYVDSVKGRFTISRDNAKNSLYLQMNSLRAEDTAVYYCARDYGSVAGTPFDYWGQGTLVTVSS VL: DIQMTQSPSSLSASVGDRVTITCRASQSISSYLNWYQQKPGKAPKLLIYAASSLQSGVPSRFSGSGSGTDFTLTISSLQPEDFATYYCQQVLHTPLTFGGGTKVEIK
4. C-64 (antibody, V domains shown, human IgG1) VH: QVQLVQSGAEVKKPGSSVKVSCKASGGTFSSLAISWVRQAPGQGLEWMGGIIPIFGTANYAQKFQGRVTITADESTSTAYMELSSLRSEDTAVYYCARGTFYSDELFDYWGQGTLVTVSS VL: DIQMTQSPSSVSASVGDRVTITCRASQGISSWLAWYQQKPGKAPKLLIYAASSLQSGVPSRFSGSGSGTDFTLTISSLQPEDFATYYCQQENSYPLTFGGGTKVEIK
5. C-91 (antibody, V domains shown, human IgG1) VH: EVQLVESGGGLVQPGGSLRLSCAASGFTFSSYWMSWVRQAPGKGLEWVANIKSDGSEKYYVDSVKGRFTISRDNAKNSLYLQMNSLRAEDTAVYYCARDVGGDYSGSDLASYWGQGTLVTVSS VL: DIQMTQSPSSLSASVGDRVTITCRASQSISSYLNWYQQKPGKAPKLLIYAASSLQSGVPSRFSGSGSGTDFTLTISSLQPEDFATYYCQQGYDPPLTFGGGTKVEIK
6. C-39 (antibody, V domains shown, human IgG1) VH: QLQLQESGPGLVKPSETLSLTCTVSGGSISSSSYYWGWIRQPPGKGLEWIGSIYYSGSTYYNPSLKSRVTISVDTSKNQFSLKLSSVTAADTAVYYCAREGVRGMDVWGQGTTVTVSS VL: EIVLTQSPGTLSLSPGERATLSCRASQSVSSSYLAWYQQKPGQAPRLLIYGASSRATGIPDRFSGSGSGTDFTLTISRLEPEDFAVYYCQQFAFLPPTFGGGTKVEIK
7. C-25 (antibody, V domains shown, human IgG1) VH: EVQLVESGGGLVQPGGSLRLSCAASGFTFSSYWMSWVRQAPGKGLEWVANIKSDGSEKYYVDSVKGRFTISRDNAKNSLYLQMNSLRAEDTAVYYCAREGFRDGINWFDPWGQGTLVTVSS VL: DIQMTQSPSSLSASVGDRVTITCRASQSISRYLNWYQQKPGKAPKLLIYAASSLQSGVPSRFSGSGSGTDFTLTISSLQPEDFATYYCQQQFLTPITFGGGTKVEIK
8. C-63 (antibody, V domains shown, human IgG1) VH: QVQLVQSGAEVKKPGSSVKVSCKASGGTFSSYAISWVRQAPGQGLEWMGSIIPIFGTANYAQKFQGRVTITADESTSTAYMELSSLRSEDTAVYYCARDLGGQYYGSHHYWGQGTLVTVSS VL: EIVLTQSPATLSVSPGERATLSCRASQSVGSNLAWYQQKPGQAPRLLIYGASTRATGIPARFSGSGSGTEFTLTISSLQSEDFAVYYCQQYNAWPLTFGGGTKVEIK

Marked response:
1. 208
2. 221
3. 230
4. 188
5. 38.2
6. 1210
7. 187
8. 28.8

Exam item: Return the recorded T cell MFI value; entry: C-65 (antibody, V domains shown, human IgG1) VH: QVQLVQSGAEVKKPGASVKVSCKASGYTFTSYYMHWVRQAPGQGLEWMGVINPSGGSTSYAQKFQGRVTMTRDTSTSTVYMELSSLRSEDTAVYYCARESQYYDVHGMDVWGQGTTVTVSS VL: DIQMTQSPSSLSASVGDRVTITCRASQSISSYLNWYQQKPGKAPKLLIYAASSLQSGVPSRFSGSGSGTDFTLTISSLQPEDFATYYCQQQYTLPPTFGGGTKVEIK
Marked response: 216

Origin of the recorded values: patent US20220281976A1
